Test system: HCT116
EXPERIMENTAL_DETAILS: In Vitro cytotoxicity measured by the cell colony formation assay
Assay type: cell-based
CONDITION_DESCRIPTION: Homo sapiens, HCT-116; 72 h drug incubation, colonies counted after 7 days; concentration producing 50% inhibition of colony formation; read-out: IN VITRO ID 50 (nm) HCT116
pIC50: −log10 of the molar value.
Give pIC50 for every item shown.

Worked set:
CCCC(=O)O[C@H]1C[C@H]2OC[C@@]2(OC(C)=O)[C@H]2[C@H](OC(=O)c3ccccc3)[C@]3(O)C[C@H](OC(=O)[C@H](O)[C@@H](NC(=O)OC(C)(C)C)C4CC4)C(C)=C([C@@H](O)C(=O)[C@]12C)C3(C)C | > 9.00
CCC(=O)O[C@H]1C[C@H]2OC[C@@]2(OC(C)=O)[C@H]2[C@H](OC(=O)c3ccccc3)[C@]3(O)C[C@H](OC(=O)[C@H](O)[C@@H](NC(=O)OC(C)C)c4ccco4)C(C)=C([C@@H](O)C(=O)[C@]12C)C3(C)C | > 9.00
CCC(=O)O[C@H]1C[C@H]2OC[C@@]2(OC(C)=O)[C@H]2[C@H](OC(=O)c3ccccc3)[C@]3(O)C[C@H](OC(=O)[C@H](O)[C@@H](NC(=O)OC(C)(C)C)c4cccs4)C(C)=C([C@@H](O)C(=O)[C@]12C)C3(C)C | > 9.00
CCC(=O)O[C@H]1C[C@H]2OC[C@@]2(OC(C)=O)[C@H]2[C@H](OC(=O)c3ccccc3)[C@]3(O)C[C@H](OC(=O)[C@H](O)[C@@H](NC(=O)OC(C)(C)C)c4nccs4)C(C)=C([C@@H](O)C(=O)[C@]12C)C3(C)C | > 8.00
CCCCC(=O)O[C@H]1C[C@H]2OC[C@@]2(OC(C)=O)[C@H]2[C@H](OC(=O)c3ccccc3)[C@]3(O)C[C@H](OC(=O)[C@H](O)[C@@H](NC(=O)OC(C)(C)CC)c4ccco4)C(C)=C([C@@H](O)C(=O)[C@]12C)C3(C)C | > 8.00
CCC(=O)O[C@H]1C[C@H]2OC[C@@]2(OC(C)=O)[C@H]2[C@H](OC(=O)c3ccccc3)[C@]3(O)C[C@H](OC(=O)[C@H](O)[C@@H](NC(=O)OC(C)(C)CC)c4ccco4)C(C)=C([C@@H](O)C(=O)[C@]12C)C3(C)C | > 9.00
C/C=C/C(=O)O[C@H]1C[C@H]2OC[C@@]2(OC(C)=O)[C@H]2[C@H](OC(=O)c3ccccc3)[C@]3(O)C[C@H](OC(=O)[C@H](O)[C@@H](NC(=O)OC(C)(C)C)c4cccs4)C(C)=C([C@@H](O)C(=O)[C@]12C)C3(C)C | > 9.00

Consider now this further molecule.
**Q:** Using known records, supply pIC50 for CCCC(=O)OC1CC2OCC2(OC(C)=O)C2C(OC(=O)c3ccccc3)C3(O)CC(OC(=O)C(O)C(NC(=O)c4cccs4)c4cccs4)C(C)=C(C(O)C(=O)C12C)C3(C)C (centres unmarked)
**A:** > 9.00

* * *

Give IC50 for every item shown.
Test system: HCT116
EXPERIMENTAL_DETAILS: In Vitro cytotoxicity measured by the cell colony formation assay
Type: cell-based
CONDITION_DESCRIPTION: Homo sapiens, HCT-116; 72 h drug incubation, colonies counted after 7 days; concentration producing 50% inhibition of colony formation; read-out: IN VITRO ID 50 (nm) HCT116

Worked set:
CCC(=O)O[C@H]1C[C@H]2OC[C@@]2(OC(C)=O)[C@H]2[C@H](OC(=O)c3ccccc3)[C@]3(O)C[C@H](OC(=O)[C@H](O)[C@@H](NC(=O)OCC(C)C)c4ccco4)C(C)=C([C@@H](O)C(=O)[C@]12C)C3(C)C | < 10 nM
CCC(=O)O[C@H]1C[C@H]2OC[C@@]2(OC(C)=O)[C@H]2[C@H](OC(=O)c3ccccc3)[C@]3(O)C[C@H](OC(=O)[C@H](O)[C@H](C=C(C)C)NC(=O)OCC(C)C)C(C)=C([C@@H](O)C(=O)[C@]12C)C3(C)C | 21.1 nM
CCCC(=O)N[C@@H](c1ccco1)[C@@H](O)C(=O)O[C@H]1C[C@@]2(O)[C@@H](OC(=O)c3ccccc3)[C@@H]3[C@]4(OC(C)=O)CO[C@@H]4C[C@H](OC(=O)CC)[C@@]3(C)C(=O)[C@H](O)C(=C1C)C2(C)C | < 1 nM

Consider now this further compound.
**Q:** Using known records, supply IC50 for CCC(=O)OC1CC2OCC2(OC(C)=O)C2C(OC(=O)c3ccccc3)C3(O)CC(OC(=O)C(O)C(NC(=O)c4cccnc4)c4cccs4)C(C)=C(C(O)C(=O)C12C)C3(C)C (stereo not shown)
**A:** < 10 nM
